Examples of compounds with documented melting point follow.
endpointName: melting point

{"columns": ["compound", "endpointName", "recordedResult"],
 "data": [
  ["COc1cc(C(=O)NCC(C)C)cc(OC)c1OC [Compound 14, N-Isobutyl-3,4,5–trimethoxybenzamide]", "melting point", "118 to 119 °C"],
  ["CCOC(=O)c1cc(OC)c(OC)c(OC)c1 [Compound 2, Ethyl 3,4,5–trimethoxybenzoate]", "melting point", "53 to 54 °C"],
  ["CCCCCCCCCCOC(=O)c1cc(OC)c(OC)c(OC)c1 [Compound 8, Decyl 3,4,5–trimethoxybenzoate]", "melting point", "49 to 50 °C"],
  ["CCCOC(=O)c1cc(OC)c(OC)c(OC)c1 [Compound 3, Propyl 3,4,5–trimethoxybenzoate]", "melting point", "34 to 35 °C"]
]}

---

- Tested on: HT-29 (colon adenocarcinoma)
- testDescription: MTT cell viability assay, HT-29
- Type: cell-based
- appliedConditions: Homo sapiens, HT-29, HT-29

{"columns": ["molecule", "IC50"],
 "data": [
  ["COc1ccc(COC(=O)c2cc(OC)c(OC)c(OC)c2)cc1 [Compound 9]", "< 10 µM"]
]}

---

- testDescription: Hemolysis assay
- Type: cell-based
- appliedConditions: human erythrocytes

{"columns": ["smilesEntry", "hemolysis at 1000 µM"],
 "data": [
  ["COc1ccc(COC(=O)c2cc(OC)c(OC)c(OC)c2)cc1", "< 1%"]
]}

---

- Test system: HEP G2 (hepatocarcinoma)
- testDescription: MTT cell viability assay, HEP G2
- Assay type: cell-based
- appliedConditions: HEP G2
pIC50: −log10 of the molar value.

{"columns": ["smilesEntry", "pIC50"],
 "data": [
  ["COc1ccc(COC(=O)c2cc(OC)c(OC)c(OC)c2)cc1", 5.18]
]}

---

- Tested on: SCC9 cells
- testDescription: MTT cell viability (cytotoxicity) assay, SCC9
- Assay type: cell-based, human
- appliedConditions: Homo sapiens, SCC-9; 48 h treatment, MTT; read-out: SCC9 IC50 (µg/mL)

{"columns": ["compound", "IC50"],
 "data": [
  ["CCCCNC(=O)c1cc(OC)c(OC)c(OC)c1 [Compound 13, N-Butyl-3,4,5–trimethoxybenzamide]", "125 µg/mL"],
  ["COC(=O)c1cc(OC)c(OC)c(OC)c1 [Compound 1, Methyl 3,4,5–trimethoxybenzoate]", "194 µg/mL"],
  ["CCCCCCCCCCOC(=O)c1cc(OC)c(OC)c(OC)c1 [Compound 8, Decyl 3,4,5–trimethoxybenzoate]", "337 µg/mL"],
  ["CCCCCOC(=O)c1cc(OC)c(OC)c(OC)c1 [Compound 7, Pentyl 3,4,5–trimethoxybenzoate]", "72.7 µg/mL"],
  ["COc1cc(C(=O)OCCC(C)C)cc(OC)c1OC [Compound 6, Isopentyl 3,4,5–trimethoxybenzoate]", "45.2 µg/mL"],
  ["CCCOC(=O)c1cc(OC)c(OC)c(OC)c1 [Compound 3, Propyl 3,4,5–trimethoxybenzoate]", "76 µg/mL"],
  ["COc1cc(C(=O)OC(C)C)cc(OC)c1OC [Compound 4, Isopropyl 3,4,5–trimethoxybenzoate]", "94.9 µg/mL"],
  ["COc1cc(C(=O)OC(c2ccccc2)c2ccccc2)cc(OC)c1OC [Compound 12, Diphenyl 3,4,5–trimethoxybenzoate]", "314 µg/mL"],
  ["CCCCOC(=O)c1cc(OC)c(OC)c(OC)c1 [Compound 5, Butyl 3,4,5–trimethoxybenzoate]", "54.8 µg/mL"]
]}

The values you see were collected from paper PMC9964404.
